FYI, the data here is from paper PMC11015380.

system: Hek293 (Normal); test: WST cell viability assay, Hek293 cells; assay type: cell-based; conditions: Homo sapiens, HEK293, 72 h, read-out: IC50 Hek293 (Normal)
measured quantity: pIC50
Lab note: report pIC50 as minus log10 of the concentration in molar units, number only.

As a guide, the following entries are already answered.
>>> observed_measurement("C#Cc1c(F)ccc2cc(O)cc(-c3ncc4c(N5CC6CCC(C5)N6)nc(OC[C@@]56CCCN5C[C@H](F)C6)nc4c3F)c12 [MRTX1133, reference compound]")
4.71
>>> observed_measurement("Cl.c1ccc(CN(Cc2ccccc2)c2nc(N3CCC4(CC3)CNC4)c3ncn(Cc4ccccc4)c3n2)cc1")
5.04

Name the recorded pIC50 of the item Cc1nc(-c2ccc(Cl)cc2)nc(N2CCC3(CC2)CNC3)c1Cc1ccccc1 in your answer.
5.04
